Collected growth at 10 µM values appear next to each entry.
Test system: U-251
Experiment: Cytotoxicity against human U251 cells assessed as cell growth at 10 uM after 48 hrs by SRB assay relative to control
Assay type: functional
Settings: U-251, 48 h, read-out: Activity
Give the value in % but do not write % after it.

                                 cpd_smiles  measured_attribute  readout_unit  endpoint_value
0  Cc1cccc(C)c1Sc1cc2c(c3nsnc13)C(=O)c1ccccc1C2=O     growth at 10 µM             %            53.9
1  O=C1c2ccccc2C(=O)c2c1cc(Sc1cc(Cl)ccc1Cl)c1nsnc21     growth at 10 µM             %            63.6
2  O=C1c2ccccc2C(=O)c2c1cc(Sc1ccc(Cl)cc1)c1nsnc21     growth at 10 µM             %             104
3   CC(C)Sc1cc2c(c3nsnc13)C(=O)c1ccccc1C2=O     growth at 10 µM             %           -23.1
4  O=C1c2ccccc2C(=O)c2c1cc(Sc1ccc(F)cc1F)c1nsnc21     growth at 10 µM             %            34.5

Form field: growth at 10 µM recorded for `COc1ccc(Sc2cc3c(c4nsnc24)C(=O)c2ccccc2C3=O)cc1` with U-251 (enter value)
103

Quick check: growth at 10 µM on U-251, item `Cc1ccc(Sc2cc3c(c4nsnc24)C(=O)c2ccccc2C3=O)c(C)c1` ?
105

Record `O=C1c2ccccc2C(=O)c2c1cc(SCc1ccccc1)c1nsnc21` : what is its growth at 10 µM with U-251?
30.5

Item `Cc1ccccc1Sc1cc2c(c3nsnc13)C(=O)c1ccccc1C2=O` with U-251 - growth at 10 µM?
62.4

For the record `CCOc1cccc(Sc2cc3c(c4nsnc24)C(=O)c2ccccc2C3=O)c1` , what value of growth at 10 µM is listed for U-251?
110

###

The following compounds are shown together with reported GI50 values.
System: HCT-15
Assay: Cytotoxicity against human HCT15 cells after 48 hrs by SRB assay
Type: functional
Settings: HCT-15, 48 h
Answer with a number only, understood to be in nM.

>>> df
                                 cpd_smiles  measured_attribute  endpoint_value
0  O=C1c2ccccc2C(=O)c2c1cc(Sc1cccc(Cl)c1)c1nsnc21                GI50            2710
1  O=C1c2ccccc2C(=O)c2c1cc(SCc1ccccc1)c1nsnc21                GI50            8270
2  O=C1c2ccccc2C(=O)c2c1cc(Sc1ccc(F)cc1F)c1nsnc21                GI50            2840
3   CC(C)Sc1cc2c(c3nsnc13)C(=O)c1ccccc1C2=O                GI50            1690

Now turn to the next compound.
Write down the reported GI50 of `O=C1c2ccccc2C(=O)c2c1cc(Sc1ccccc1Br)c1nsnc21` , test system: HCT-15.
12300

###

System: SNB-19
Test: Cytotoxicity against human SNB19 cells assessed as cell growth at 10 uM after 48 hrs by SRB assay relative to control
Format: functional
Details: SNB-19, 48 h, read-out: Activity
Measured growth at 10 µM by item
// return numeric value only (unit: %, not printed)

Sample records with growth at 10 µM:
                                 cpd_smiles  endpoint_value
0  CSc1ccc(Sc2cc3c(c4nsnc24)C(=O)c2ccccc2C3=O)cc1             102
1  O=C1c2ccccc2C(=O)c2c1cc(Sc1ccc(F)cc1F)c1nsnc21            87.3
2  COc1cccc(Sc2cc3c(c4nsnc24)C(=O)c2ccccc2C3=O)c1             106
3  O=C1c2ccccc2C(=O)c2c1cc(SCc1ccc(Cl)cc1)c1nsnc21             104
4  COc1ccc(Sc2cc3c(c4nsnc24)C(=O)c2ccccc2C3=O)cc1             114

Here's the next entry for you.
Given the molecule `CC(C)Sc1cc2c(c3nsnc13)C(=O)c1ccccc1C2=O` , what is its reported growth at 10 µM?
21.9
